# study_system: human Kv1.3 (hKv1.3) channels (Homo sapiens (Human), UniProt P22001)
# Sequence (P22001 whole entry): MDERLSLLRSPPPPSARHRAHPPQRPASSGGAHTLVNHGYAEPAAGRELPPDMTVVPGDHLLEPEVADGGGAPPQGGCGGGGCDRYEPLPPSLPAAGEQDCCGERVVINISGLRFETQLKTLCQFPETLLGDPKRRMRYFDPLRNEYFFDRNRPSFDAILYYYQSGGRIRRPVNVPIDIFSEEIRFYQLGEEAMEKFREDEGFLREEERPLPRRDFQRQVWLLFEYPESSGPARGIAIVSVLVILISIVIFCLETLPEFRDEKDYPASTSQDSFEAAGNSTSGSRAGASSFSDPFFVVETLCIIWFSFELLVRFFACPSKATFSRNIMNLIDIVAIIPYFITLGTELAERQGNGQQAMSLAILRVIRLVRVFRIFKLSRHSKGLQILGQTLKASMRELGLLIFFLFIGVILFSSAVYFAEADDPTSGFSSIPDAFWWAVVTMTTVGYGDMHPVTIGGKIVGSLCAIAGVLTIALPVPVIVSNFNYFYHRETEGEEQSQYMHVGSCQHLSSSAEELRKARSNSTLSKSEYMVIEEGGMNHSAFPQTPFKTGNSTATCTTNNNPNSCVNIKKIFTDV
# assay_summary: Electrophysiological (whole-cell patch clamp) determination of inhibitory activity on Kv1.3 channels
# Format: cell-based
# details: HEK-293T; compound concentration 10 nM; HEK293T cells expressing hKv1.3; peak current inhibition; read-out: 10 nM inhibition rate (Kv1.3)
# Description: Test Example 1: Determination of Inhibitory Activity of Compounds on Kv1.3 (hKv1.3) Channels Electrophysiological Testing Potassium currents were measured using HEK293T cells expressing human Kv1.3 (hKv1.3) channels. […] Raw Kv1.3 current peak data were extracted from PatchMaster software. The current inhibition rate was calculated as follows: Peak current inhibition rate=((1−(Peak current compound)/(Peak current vehicle))). […]
Readings of inhibition at 0.01 µM for the listed molecules

Lab book: inhibition at 0.01 µM of NS(=O)(=O)CCN1CC(c2c(O)ccc(Cl)c2Cl)CC1=O (centres unmarked) noted as 0 to 5%

###

# study_system: human Kv1.3 (hKv1.3) channels (Homo sapiens (Human))
# assay_summary: Electrophysiological (whole-cell patch clamp) determination of inhibitory activity on Kv1.3 channels
# details: HEK293T cells expressing hKv1.3; Hill fit of peak current inhibition
Readings of IC50 for the listed molecules

> print(dat)
                                   molecule  property        result
1  OC[C@@H](O)CN1CC(c2c(O)ccc(Cl)c2Cl)CC1=S (mixture of isomers)      IC50  30 to 100 nM
2  Oc1ccc(Cl)c(Cl)c1[C@@H]1CC(=S)N(C[C@H]2C[C@H](O)C2)C1      IC50        ≤ 5 nM
3  O=C1C[C@@H](c2c(O)ccc(Cl)c2Cl)CN1CCCO [Compound W1, reference compound]      IC50   10 to 30 nM
4  Oc1ccc(Cl)c(Cl)c1[C@@H]1CC(=S)N([C@H]2C[C@H](O)C2)C1      IC50    5 to 10 nM

Lab book: IC50 of "OCC(F)(F)CN1C[C@H](c2c(O)ccc(Cl)c2Cl)CC1=S" noted as 10 to 30 nM

Lab book: IC50 of "OCCCCN1C[C@H](c2c(O)ccc(Cl)c2Cl)CC1=S" noted as ≤ 5 nM

###

Readings of inhibition at 0.01 µM for the listed compounds
# study_system: human Kv1.3 (hKv1.3) channels (Homo sapiens (Human), UniProt P22001)
# assay_summary: Electrophysiological (whole-cell patch clamp) determination of inhibitory activity on Kv1.3 channels
# Type: cell-based
# details: HEK-293T; compound concentration 10 nM; HEK293T cells expressing hKv1.3; peak current inhibition; read-out: 10 nM inhibition rate (Kv1.3)

Below: 8 compounds and their reported inhibition at 0.01 µM.
> print(dat)
                                   compound     result
1  OCCCN1CC(c2c(O)ccc(Cl)c2F)CC1=S (racemic) [Compound 149]       < 0%
2  N=C(N)CCN1CC(c2c(O)ccc(Cl)c2Cl)CC1=O (stereo not drawn) [Compound 114]    0 to 5%
3  Oc1ccc(Cl)c(Cl)c1C1CC(=S)N(c2cnn(C3CC3)c2)C1 (racemic) [Compound 150]  50 to 75%
4  Oc1ccc(Cl)c(Cl)c1C1CC(=S)N(c2cnn3c2COCC3)C1 (racemic) [Compound 163]  25 to 50%
5  Oc1ccc(Cl)c(Cl)c1C1CC(=S)N(c2cnn3c2OCCC3)C1 (racemic) [Compound 162]    0 to 5%
6  O=C1C[C@@H](c2c(O)ccc(Cl)c2Cl)CN1CCCO [Compound W1, reference compound]  25 to 50%
7  OCCCN1CC(c2c(O)ccc(Cl)c2Cl)CC1=S (racemic) [Compound 1]  25 to 50%
8  Oc1ccc(Cl)c(Cl)c1C1CC(=S)N(c2cnn3c2OCC3)C1 (racemic) [Compound 161]  50 to 75%

Lab book: inhibition at 0.01 µM of COc1cc(N2CC(c3c(O)ccc(Cl)c3Cl)CC2=S)ccn1 (racemic) [Compound 166] noted as 0 to 5%

###

# study_system: human Kv1.3 (hKv1.3) channels (Homo sapiens (Human))
# assay_summary: Electrophysiological (whole-cell patch clamp) determination of inhibitory activity on Kv1.3 channels
# Assay type: cell-based
# details: HEK-293T; compound concentration 10 nM; HEK293T cells expressing hKv1.3; peak current inhibition; read-out: 10 nM inhibition rate (Kv1.3)
Readings of inhibition at 0.01 µM for the listed compounds

Below: 4 compounds and their reported inhibition at 0.01 µM.
> print(dat)
                                   compound               property     result
1  Oc1ccc(Cl)c(Cl)c1C1CC(=S)N([C@H]2C[C@H](O)C2)C1 (mixture of isomers)  inhibition at 0.01 µM  25 to 50%
2  Oc1ccc(Cl)c(Cl)c1C1CC(=S)N(C[C@H]2C[C@H](O)C2)C1 (mixture of isomers)  inhibition at 0.01 µM    0 to 5%
3  CS(=O)(=O)n1cc(N2CC(c3c(O)ccc(Cl)c3Cl)CC2=S)cn1 (racemic)  inhibition at 0.01 µM  25 to 50%
4  CS(=N)(=O)CCN1CC(c2c(O)ccc(Cl)c2Cl)CC1=O (centres unmarked)  inhibition at 0.01 µM    0 to 5%

Lab note: next compound to report on.
Lab book: inhibition at 0.01 µM of Cn1cncc1N1CC(c2c(O)ccc(Cl)c2Cl)CC1=S (centres unmarked) noted as < 0%

###

# study_system: human Kv1.3 (hKv1.3) channels (Homo sapiens (Human), UniProt P22001)
# assay_summary: Electrophysiological (whole-cell patch clamp) determination of inhibitory activity on Kv1.3 channels
# Type: cell-based
# details: HEK-293T; compound concentration 10 nM; HEK293T cells expressing hKv1.3; peak current inhibition; read-out: 10 nM inhibition rate (Kv1.3)
Readings of inhibition at 0.01 µM for the listed compounds

> print(dat)
                                   compound               property     result
1  Oc1ccc(Cl)c(Cl)c1C1CC(=S)N(c2cnn(C3COC3)c2)C1 (racemic)  inhibition at 0.01 µM  50 to 75%

Lab book: inhibition at 0.01 µM of O=C1CC(c2c(O)ccc(Cl)c2Cl)CN1CCNO (stereo not shown) noted as 25 to 50%

Lab book: inhibition at 0.01 µM of NC1CC2(C1)CC(N1CC(c3c(O)ccc(Cl)c3Cl)CC1=O)C2 (stereo not shown) noted as 50 to 75%

Lab book: inhibition at 0.01 µM of O=C1CC(c2c(O)ccc(Cl)c2Cl)CN1c1cnn2c1CCC2 (racemic) noted as 25 to 50%

###

# study_system: human Kv1.3 (hKv1.3) channels (Homo sapiens (Human), UniProt P22001)
# assay_summary: Electrophysiological (whole-cell patch clamp) determination of inhibitory activity on Kv1.3 channels
# details: HEK293T cells expressing hKv1.3; Hill fit of peak current inhibition
pIC50: −log10 of the molar value.
Readings of pIC50 for the listed compounds

Lab book: pIC50 of "OCCCN1C[C@H](c2c(O)ccc(Cl)c2Cl)CC1=S" noted as 8.00 to 8.30

Lab book: pIC50 of "Oc1ccc(Cl)c(Cl)c1[C@@H]1CC(=S)N(c2cnn3c2CCC3)C1" noted as 8.00 to 8.30

Lab book: pIC50 of NCCCN1C[C@H](c2c(O)ccc(Cl)c2Cl)CC1=O [Compound W2, reference compound] noted as 7.52 to 8.00
